Give measured inhibition at 100 µM for each item. Keep answers brief.
- Test system: platelet
- experiment_summary: Blood platelet aggregation inhibiting effect (collagen-induced)
- Format: cell-based, rabbits
- run_conditions: Oryctolagus cuniculus, Platelet; 10^-4 mole, collagen inducer, rabbit PRP; read-out: Blood platelet agg. inh.: percentage inhibition of platelet aggregation
- Text: Male rabbits (Japan original white strain 3.3 to 3.6 kg) were anesthetized with Thiopental sodium and blood was sampled from the carotid artery.
Answers are plain numbers, in %.

Cc1ccc(C)c(C(=O)c2ccccc2)c1	20.9
CC(C)Cc1ccc(C(=O)c2ccccc2)cc1	18.5
O=C(C(=O)c1ccccc1)c1ccccc1	10.1

State recorded inhibition at 100 µM for all listed compounds.
1. CC(C)(C)c1ccc(C(=O)c2ccccc2)cc1
2. CCCCCc1ccc(C(=O)c2ccc(O)cc2)cc1

Reply:
[9.5, 24.1]

Measured inhibition at 100 µM of "CCCCCCOc1ccc(C(=O)Cc2ccc(Cl)cc2)cc1" : 12.3

----------
- System: platelet
- experiment_summary: Blood platelet aggregation inhibiting effect (collagen-induced)
- Assay type: cell-based, rabbits
- run_conditions: Oryctolagus cuniculus, Platelet; 10^-4 mole, collagen inducer, rabbit PRP; read-out: Blood platelet agg. inh.: percentage inhibition of platelet aggregation
Please go through the items and note down their inhibition at 100 µM.
Give bare numbers, in %.

Previously resolved entries follow.
CCCCCc1ccc(C(=O)c2ccc(CCCCC)cc2)cc1	10.3
CCCCCCCc1ccc(C(=O)c2ccc(C)cc2)cc1	18.7
CC(C)c1ccc(C(=O)c2ccccc2)cc1	8.6

Please state inhibition at 100 µM for every compound in the list that follows.
1. CCCCCCCCc1ccc(C(=O)c2ccc(CCCC)cc2)cc1
2. COc1ccc(OC)c(C(=O)c2ccccc2)c1

Reply:
1: 27.9; 2: 30.7

----------
- Test system: platelet
- experiment_summary: Blood platelet aggregation inhibiting effect (collagen-induced)
- Type: cell-based, rabbits
- run_conditions: Oryctolagus cuniculus, Platelet; 10^-4 mole, collagen inducer, rabbit PRP; read-out: Blood platelet agg. inh.: percentage inhibition of platelet aggregation
- From the text: Male rabbits (Japan original white strain 3.3 to 3.6 kg) were anesthetized with Thiopental sodium and blood was sampled from the carotid artery.
assay_metric: inhibition at 100 µM
Please report the result as a number followed by the unit.

CCc1ccc(CC)c(C(=O)c2ccccc2)c1 [compound 80]	30.3%
CCCCc1ccc(C(=O)c2ccccc2F)cc1 [compound 8]	24%
CCCCc1ccc(C(=O)c2ccccc2Cl)cc1 [compound 44]	10.5%

Would you mind listing inhibition at 100 µM for each of the following compounds?
1. CCCc1ccc(C(=O)c2ccccc2)cc1 [compound 20]
2. O=C(c1ccccc1)c1ccccc1F [compound 15]
3. Cc1cc(C)c(C(=O)c2ccc(Cl)cc2)c(C)c1 [compound 14]
4. CCCCc1ccc(CCCC)c(C(=O)c2ccccc2)c1 [compound 77]
5. CCCCCCc1ccc(C(=O)c2ccc(CCCC)cc2)cc1 [Active ingredient No. 5]
6. CCCCCCCCCCCc1ccc(C(=O)c2ccccc2)cc1 [compound 71]
7. CCCCCCCCCCc1ccc(C(=O)Cc2ccccc2)cc1 [compound 50]

Reply:
36.6%
23.2%
18.1%
25.1%
15.3%
19.5%
8.7%

----------
- Tested on: hind paws of male rats
- experiment_summary: Anti-inflammatory effect: acute carragheenin edema method
- Type: in vivo
- run_conditions: Rattus norvegicus; 100 mg/kg oral, carragheenin edema, male rats (Table 2'); read-out: Anti-inf.: edema inhibition rate
assay_metric: inhibition in vivo at 100 mg/kg (%)
Answers are plain numbers, in %.

CCCCc1ccc(C(=O)c2ccccc2I)cc1 [compound 155]	31.8
Cc1ccc(C(=O)c2cccc(Br)c2)c(C)c1 [compound 149]	42.2
Cc1cc(C)c(C(=O)c2cccc(I)c2)c(C)c1 [compound 163]	16.4
CCCCc1ccc(C(=O)c2ccccc2Br)cc1 [compound 143]	45.4
CCCCCc1ccc(C(=O)c2ccccc2Br)cc1 [compound 144]	50
CCCCCCCCc1ccc(C(=O)c2ccccc2Br)cc1 [compound 145]	60.2
COc1ccc(C(=O)c2ccc(Cl)cc2)cc1 [compound 136]	13.2
Cc1cc(C)c(C(=O)c2ccc(F)cc2)c(C)c1 [compound 131]	33.6
CCCCc1ccc(C(=O)c2ccc(F)cc2)cc1 [compound 127]	58.8
CCC(C)(C)c1ccc(C(=O)c2ccccc2F)cc1 [compound 122]	39.3

I have 4 molecules here; please give me inhibition in vivo at 100 mg/kg for each one.
1. Cc1ccc(C(=O)c2ccc(F)cc2)c(C)c1 [compound 130]
2. COc1ccc(C(=O)c2ccccc2F)cc1 [compound 116]
3. CCCCc1ccc(C(=O)c2cccc(I)c2)cc1 [compound 160]
4. Cc1ccc(C(=O)c2cccc(I)c2)c(C)c1 [compound 162]

Reply:
1. 37.8
2. 59.8
3. 10.8
4. 13

----------
- Tested on: platelet
- experiment_summary: Blood platelet aggregation inhibiting effect (collagen-induced)
- Type: cell-based, rabbits
- run_conditions: Oryctolagus cuniculus, Platelet; 10^-4 mole, collagen inducer, rabbit PRP; read-out: Blood platelet agg. inh.: percentage inhibition of platelet aggregation
- Description: Male rabbits (Japan original white strain 3.3 to 3.6 kg) were anesthetized with Thiopental sodium and blood was sampled from the carotid artery.
Label fulfilled when inhibition at 100 µM >= 20%; otherwise not fulfilled.

# count of solved cases: 4
CCCCc1ccc(C(=O)c2ccccc2)cc1 [compound 19]	not fulfilled
CCCCCCCCCc1ccc(C(=O)c2ccccc2)cc1 [compound 70]	not fulfilled
CCCCCCc1ccc(C(=O)c2c(C)cc(C)cc2C)cc1 [compound 103]	fulfilled
CCCCc1ccc(C(=O)c2cccc(C)c2)cc1 [compound 88]	fulfilled

Ask: hey, is inhibition at 100 µM for this one >= 20%? CCCCCCCCCCc1ccc(C(=O)c2ccccc2)cc1 [compound 68]
Reply: not fulfilled

Ask: Given the entry CCCCc1ccc(C(=O)c2ccc(CCC)cc2)cc1 [compound 98] , answer whether its inhibition at 100 µM meets or surpasses 20%.
Reply: fulfilled

Ask: Textbook exercise: given the entry CCCc1ccc(CCC)c(C(=O)c2ccccc2)c1 [compound 16] , state whether its inhibition at 100 µM is greater than or equal to 20%.
Reply: not fulfilled

Ask: Reported inhibition at 100 µM reaches at least 20% for Cc1ccccc1C(=O)c1c(C)c(C)cc(C)c1C [compound 91] ?
Reply: not fulfilled

Ask: Would you say CCCc1ccc(C(=O)Cc2ccccc2)cc1 [compound 49] shows inhibition at 100 µM at minimum 20%?
Reply: fulfilled

Ask: API: above_or_equal(metric=inhibition at 100 µM, cutoff=20%) for item Cc1ccc(C(=O)c2ccc(C)cc2)cc1 [compound 83]
Reply: fulfilled

----------
- System: platelet
- experiment_summary: Blood platelet aggregation inhibiting effect (collagen-induced)
- Type: cell-based, rabbits
- run_conditions: Oryctolagus cuniculus, Platelet; 10^-4 mole, collagen inducer, rabbit PRP; read-out: Blood platelet agg. inh.: percentage inhibition of platelet aggregation
- Description: Male rabbits (Japan original white strain 3.3 to 3.6 kg) were anesthetized with Thiopental sodium and blood was sampled from the carotid artery.
assay_metric: inhibition at 100 µM (%)
Answers are plain numbers, in %.

Before answering, review these 4 worked examples.
CCCCc1ccc(C(=O)c2ccc(F)cc2C)cc1 [compound 46]	16.5
COc1ccc(C(=O)Cc2ccccc2)cc1 [compound 57]	12.5
Cc1ccc(C(=O)Cc2ccccc2)cc1 [compound 48]	20.5
Cc1cc(C)c(C(=O)c2ccccc2)c(C)c1C [compound 79]	26.8

Hello, I would appreciate it if you could give inhibition at 100 µM for each entry below.
1. CCCCCCc1ccc(C(=O)c2ccc(CCC)cc2)cc1 [Active ingredient No. 6]
2. O=C(Cc1ccccc1)c1ccccc1 [compound 47]
3. COc1ccc(C(=O)Cc2ccc(Cl)cc2)cc1 [compound 60]

Reply:
[17.8, 18.3, 4]

Could I get inhibition at 100 µM for every one of these entries?
1. COc1ccc(C(=O)c2ccccc2)c(OC)c1 [compound 74]
2. CCc1ccc(C(=O)c2ccc(CC)cc2)cc1 [compound 106]
3. CCCCCCc1ccc(C(=O)c2ccc(C)cc2)cc1 [compound 36]
4. O=C(c1ccc(F)cc1)c1ccccc1Cl [compound 115]

Reply:
1: 18.5; 2: 20.3; 3: 15.1; 4: 25.4

----------
- experiment_summary: in vivo
- run_conditions: mouse, in vivo, po
assay_metric: LD50 at 72 h (mg/kg)
One number for each entry, in mg/kg.

CCCCCCc1ccc(C(=O)c2ccc(CCC)cc2)cc1	5000
CCCCCCc1ccc(C(=O)c2ccc(CCCC)cc2)cc1	5000

Let us move to another entry and its LD50 at 72 h.
Recorded result, "Cc1cc(C)c(C(=O)c2ccccc2C)c(C)c1" , LD50 at 72 h: 1500

----------
- Tested on: platelet
- experiment_summary: Blood platelet aggregation inhibiting effect (collagen-induced)
- Assay type: cell-based, rabbits
- run_conditions: Oryctolagus cuniculus, Platelet; 10^-4 mole, collagen inducer, rabbit PRP; read-out: Blood platelet agg. inh.: percentage inhibition of platelet aggregation
Can you tell me inhibition at 100 µM for the items I'm about to list?
Give bare numbers, in %.

CCCCCc1ccc(C(=O)c2ccccc2C)cc1	14.4
CCCCc1ccc(C(=O)c2ccc(OC)cc2)cc1	9.3
CCCCCCc1ccc(C(=O)C(=O)c2ccccc2)cc1	20.3

inhibition at 100 µM for platelet with input "CCCc1ccc(C(=O)c2ccc(Cl)cc2)cc1" equals 15.6
